Origin of values: PubChem BioAssay (NCI)

System: HOP-62 NSCLC
METHOD NOTES: NCI tumour cell line growth inhibition, 48 h
OBSERVABLE: GI50

Worked cases, answers included:
| MOLECULE | GI50 |
| --- | --- |
| COc1ccc(-c2c(Nc3ccccn3)nc3c(C4=CCCCC4)c(-c4ccccc4)[nH]n3c2=O)cc1 | 3.73 µM |
| CC(=O)O[C@H]([C@H](OC(C)=O)[C@H](C)OC(C)=O)[C@@H](/C=C/[C@H]1CC=CC(=O)O1)OC(C)=O | 48.5 µM |
| CN(C)[C@@H]1C(=O)C(C(=O)NCc2nc3[nH]cnc(=S)c3[nH]2)=C(O)[C@@]2(O)C(=O)C3=C(O)c4c(O)cccc4[C@@](C)(O)[C@H]3C[C@@H]12 | 1.4 µM |

We next turn to a different molecule, shown below.
Reported GI50 for CCCCCCCCCCCCOC1C(C(COC2OC(C(O)CO)C3OC(C)(C)OC23)OC(=O)Nc2ccccc2)OC2OC(C)(C)OC21 (centres undefined) : what is it? 9.7 µM

---

Tested on: SR leukemia
METHOD NOTES: NCI tumour cell line growth inhibition, 48 h; in the data active = GI50 below about 0.43 µM; inactive = the rest
Result category, one only: active, inactive

Examples with answers:
| STRUCTURE SMILES STRING | QUALITATIVE LABEL |
| --- | --- |
| COc1ccccc1CNCCCN1C(=O)c2ccc3c4c(ccc(c24)C1=O)C(=O)N(CCCNCc1ccccc1OC)C3=O | active |
| COc1cc2c(cc1OCCN1CCN(CCN3C(=O)c4cccc5cccc(c45)C3=O)CC1)N=C[C@@H]1CCCN1C2=O | inactive |
| O=C1NC(=NCc2cccs2)O/C1=C\c1ccc2ncccc2c1 | inactive |
| Cn1cc(-c2ccc3c(c2)ncn3-c2cc(NS(=O)(=O)C3CC3)cc(-c3ccc(F)cc3F)c2)cn1 | inactive |

Now for a further compound.
Outcome? `O=C(O)CSc1cc(NS(=O)(=O)c2ccc(Br)cc2)c2ccccc2c1O` inactive

---

System: SR leukemia
METHOD NOTES: NCI tumour cell line growth inhibition, 48 h
OBSERVABLE: TGI

Examples from the recorded data:
| COMPOUND | TARGET OF ASSAY | TGI |
| --- | --- | --- |
| C=C1CC[C@@H]2[C@](C)(COC(=O)CCC(=O)OC)CCC[C@@]2(C)[C@@H]1CCC1=CC(=O)OC1 | SR leukemia | 51.4 µM |
| O=S(=O)(Nc1ccccc1)c1ccc(C2CC3(Cl)C(Cl)=C(Cl)C2(Cl)C3(Cl)Cl)cc1 (stereo not given) | SR leukemia | 5.2 µM |
| CCOC(=O)c1cn(-c2ccc([N+](=O)[O-])cc2)c(=S)n2c1nc1ccccc12 | SR leukemia | > 100 µM |
| C/C(=C\c1csc(C)n1)[C@@H]1C[C@@H]2O[C@]2(C)CCC[C@H](C)[C@H](O)[C@@H](C)C(=O)C(C)(C)[C@@H](O)CC(=O)N1 | SR leukemia | 0.00332 µM |

Which TGI value belongs to CCCCCCC1OC23OC1CCC2C(O)CCC3O (stereo not given) ? > 100 µM

Cool, now COC(=O)C(C)NP(=O)(OCc1cccc(Cn2cnc3c(N)ncnc32)c1)Oc1ccccc1 (stereo not given) > 100 µM

---

Measured TGI, listed per entry.
Test system: COLO 205 colon
METHOD NOTES: NCI tumour cell line growth inhibition, 48 h
Could you give me the number in µM? Just the number is fine.

Using the record for `COc1cc(/C=C/c2cc(/C=C/c3ccc(O)c(OC)c3)n(C(=O)Nc3ccc(C)cc3)n2)ccc1O` , report its TGI. 3.51
